Conditions: 328.15 K; 101.33 kPa; Liquid; Alternating current cell with electrodes
measurement-name: electrical conductivity

Field: example entries. Status: answers known.
{"compound": "CCn1cc[n+](C)c1.F[B-](F)(F)F [1-ethyl-3-methylimidazolium tetrafluoroborate]", "readout-value": "3.51 S/m"}
{"compound": "CCCCCCCC[n+]1ccn(C)c1.F[B-](F)(F)F [1-methyl-3-octylimidazolium tetrafluoroborate]", "readout-value": "0.252 S/m"}
{"compound": "CCCCCCn1cc[n+](C)c1.F[B-](F)(F)F [1-hexyl-3-methylimidazolium tetrafluoroborate]", "readout-value": "0.483 S/m"}

# evaluate next
Fill in: electrical conductivity of CCCCn1cc[n+](C)c1.F[B-](F)(F)F [1-butyl-3-methylimidazolium tetrafluoroborate] is ___
1.15 S/m

----------
Details: 258.05 K; 101.33 kPa; Liquid; Alternating current cell with electrodes
measurement-name: electrical conductivity (S/m)
Give bare numbers, in S/m.

Field: example entries. Status: answers known.
{"compound": "CCCCn1cc[n+](C)c1.F[B-](F)(F)F [1-butyl-3-methylimidazolium tetrafluoroborate]", "value-units": "S/m", "electrical conductivity": 0.0225}
{"compound": "CCn1cc[n+](C)c1.F[B-](F)(F)F [1-ethyl-3-methylimidazolium tetrafluoroborate]", "value-units": "S/m", "electrical conductivity": 0.228}
{"compound": "CCCCCCCC[n+]1ccn(C)c1.F[B-](F)(F)F [1-methyl-3-octylimidazolium tetrafluoroborate]", "value-units": "S/m", "electrical conductivity": 0.00218}

Fill in: electrical conductivity of CCCCCCn1cc[n+](C)c1.F[B-](F)(F)F [1-hexyl-3-methylimidazolium tetrafluoroborate] is ___
0.00544

----------
Conditions: 308.15 K; 101.33 kPa; Liquid; Vibrating tube method
measurement-name: mass density (kg/m3)
Give bare numbers, in kg/m3.

Field: example entries. Status: answers known.
{"molecule": "CCCCCCn1cc[n+](C)c1.F[B-](F)(F)F [1-hexyl-3-methylimidazolium tetrafluoroborate]", "measurement-name": "mass density", "readout-value": 1139.15}
{"molecule": "CCn1cc[n+](C)c1.F[B-](F)(F)F [1-ethyl-3-methylimidazolium tetrafluoroborate]", "measurement-name": "mass density", "readout-value": 1272.48}
{"molecule": "CCCCn1cc[n+](C)c1.F[B-](F)(F)F [1-butyl-3-methylimidazolium tetrafluoroborate]", "measurement-name": "mass density", "readout-value": 1194.78}

# evaluate next
Fill in: mass density of CCCCCCCC[n+]1ccn(C)c1.F[B-](F)(F)F [1-methyl-3-octylimidazolium tetrafluoroborate] is ___
1096.82

----------
Exercise: state measured electrical conductivity for each of the compounds provided.
Settings: 458.15 K; 101.33 kPa; Liquid; Alternating current cell with electrodes
Give bare numbers, in S/m.

{"compound": "CCCCCCn1cc[n+](C)c1.F[B-](F)(F)F [1-hexyl-3-methylimidazolium tetrafluoroborate]", "value-units": "S/m", "electrical conductivity": 6.07}
{"compound": "CCCCCCCC[n+]1ccn(C)c1.F[B-](F)(F)F [1-methyl-3-octylimidazolium tetrafluoroborate]", "value-units": "S/m", "electrical conductivity": 3.99}
{"compound": "CCCCn1cc[n+](C)c1.F[B-](F)(F)F [1-butyl-3-methylimidazolium tetrafluoroborate]", "value-units": "S/m", "electrical conductivity": 10}

# evaluate next
Fill in: electrical conductivity of CCn1cc[n+](C)c1.F[B-](F)(F)F [1-ethyl-3-methylimidazolium tetrafluoroborate] is ___
18

----------
Exercise: state measured electrical conductivity for each of the compounds provided.
Settings: 348.15 K; 101.33 kPa; Liquid; Alternating current cell with electrodes
One number for each entry, in S/m.

{"compound": "CCn1cc[n+](C)c1.F[B-](F)(F)F [1-ethyl-3-methylimidazolium tetrafluoroborate]", "electrical conductivity (S/m)": 5.23}
{"compound": "CCCCCCn1cc[n+](C)c1.F[B-](F)(F)F [1-hexyl-3-methylimidazolium tetrafluoroborate]", "electrical conductivity (S/m)": 0.926}
{"compound": "CCCCCCCC[n+]1ccn(C)c1.F[B-](F)(F)F [1-methyl-3-octylimidazolium tetrafluoroborate]", "electrical conductivity (S/m)": 0.512}

# evaluate next
Fill in: electrical conductivity of CCCCn1cc[n+](C)c1.F[B-](F)(F)F [1-butyl-3-methylimidazolium tetrafluoroborate] is ___
2

----------
Details: 278.1 K; 101.33 kPa; Liquid; Alternating current cell with electrodes
measurement-name: electrical conductivity
Value and unit, in that order.

{"compound": "CCCCCCCC[n+]1ccn(C)c1.F[B-](F)(F)F [1-methyl-3-octylimidazolium tetrafluoroborate]", "measurement-name": "electrical conductivity", "readout-value": "0.0144 S/m"}
{"compound": "CCCCCCn1cc[n+](C)c1.F[B-](F)(F)F [1-hexyl-3-methylimidazolium tetrafluoroborate]", "measurement-name": "electrical conductivity", "readout-value": "0.0332 S/m"}
{"compound": "CCn1cc[n+](C)c1.F[B-](F)(F)F [1-ethyl-3-methylimidazolium tetrafluoroborate]", "measurement-name": "electrical conductivity", "readout-value": "0.703 S/m"}

# evaluate next
Fill in: electrical conductivity of CCCCn1cc[n+](C)c1.F[B-](F)(F)F [1-butyl-3-methylimidazolium tetrafluoroborate] is ___
0.113 S/m

----------
Conditions: 298.15 K; 101.33 kPa; Liquid; Alternating current cell with electrodes
Exercise: state measured electrical conductivity for each of the compounds provided.
Value and unit, in that order.

Field: example entries. Status: answers known.
{"compound": "CCn1cc[n+](C)c1.F[B-](F)(F)F [1-ethyl-3-methylimidazolium tetrafluoroborate]", "electrical conductivity": "1.55 S/m"}
{"compound": "CCCCCCCC[n+]1ccn(C)c1.F[B-](F)(F)F [1-methyl-3-octylimidazolium tetrafluoroborate]", "electrical conductivity": "0.0579 S/m"}
{"compound": "CCCCCCn1cc[n+](C)c1.F[B-](F)(F)F [1-hexyl-3-methylimidazolium tetrafluoroborate]", "electrical conductivity": "0.123 S/m"}

Fill in: electrical conductivity of CCCCn1cc[n+](C)c1.F[B-](F)(F)F [1-butyl-3-methylimidazolium tetrafluoroborate] is ___
0.352 S/m

----------
Exercise: state measured electrical conductivity for each of the compounds provided.
Settings: 448.15 K; 101.33 kPa; Liquid; Alternating current cell with electrodes
One number for each entry, in S/m.

{"compound": "CCCCCCCC[n+]1ccn(C)c1.F[B-](F)(F)F [1-methyl-3-octylimidazolium tetrafluoroborate]", "electrical conductivity, S/m": 3.56}
{"compound": "CCn1cc[n+](C)c1.F[B-](F)(F)F [1-ethyl-3-methylimidazolium tetrafluoroborate]", "electrical conductivity, S/m": 16.8}
{"compound": "CCCCn1cc[n+](C)c1.F[B-](F)(F)F [1-butyl-3-methylimidazolium tetrafluoroborate]", "electrical conductivity, S/m": 9.15}

Fill in: electrical conductivity of CCCCCCn1cc[n+](C)c1.F[B-](F)(F)F [1-hexyl-3-methylimidazolium tetrafluoroborate] is ___
5.46

----------
Conditions: 308.15 K; 101.33 kPa; Liquid; Alternating current cell with electrodes
measurement-name: electrical conductivity (S/m)
Numbers only, in S/m.

Field: example entries. Status: answers known.
{"molecule": "CCCCn1cc[n+](C)c1.F[B-](F)(F)F [1-butyl-3-methylimidazolium tetrafluoroborate]", "electrical conductivity, S/m": 0.556}
{"molecule": "CCCCCCn1cc[n+](C)c1.F[B-](F)(F)F [1-hexyl-3-methylimidazolium tetrafluoroborate]", "electrical conductivity, S/m": 0.207}
{"molecule": "CCCCCCCC[n+]1ccn(C)c1.F[B-](F)(F)F [1-methyl-3-octylimidazolium tetrafluoroborate]", "electrical conductivity, S/m": 0.101}

Fill in: electrical conductivity of CCn1cc[n+](C)c1.F[B-](F)(F)F [1-ethyl-3-methylimidazolium tetrafluoroborate] is ___
2.11

----------
Exercise: state measured electrical conductivity for each of the compounds provided.
Conditions: 368.15 K; 101.33 kPa; Liquid; Alternating current cell with electrodes
One number for each entry, in S/m.

{"compound": "CCCCn1cc[n+](C)c1.F[B-](F)(F)F [1-butyl-3-methylimidazolium tetrafluoroborate]", "electrical conductivity, S/m": 3.1}

# return electrical conductivity for each item in the list
1. CCn1cc[n+](C)c1.F[B-](F)(F)F [1-ethyl-3-methylimidazolium tetrafluoroborate]
2. CCCCCCn1cc[n+](C)c1.F[B-](F)(F)F [1-hexyl-3-methylimidazolium tetrafluoroborate]
3. CCCCCCCC[n+]1ccn(C)c1.F[B-](F)(F)F [1-methyl-3-octylimidazolium tetrafluoroborate]

1. 7.22
2. 1.54
3. 0.895

----------
Conditions: 318.15 K; 101.33 kPa; Liquid; Vibrating tube method
measurement-name: mass density (kg/m3)
Give bare numbers, in kg/m3.

# return mass density for each item in the list
1. CCCCCCn1cc[n+](C)c1.F[B-](F)(F)F [1-hexyl-3-methylimidazolium tetrafluoroborate]
2. CCCCn1cc[n+](C)c1.F[B-](F)(F)F [1-butyl-3-methylimidazolium tetrafluoroborate]
3. CCCCCCCC[n+]1ccn(C)c1.F[B-](F)(F)F [1-methyl-3-octylimidazolium tetrafluoroborate]
4. CCn1cc[n+](C)c1.F[B-](F)(F)F [1-ethyl-3-methylimidazolium tetrafluoroborate]

[1132.31, 1187.79, 1090.04, 1265.12]

Value source: the NIST ThermoML archive (doi:10.1021/je900789j)
